Tested on: SK-BR-3
ASSAY NAME: SRB colorimetric cell growth inhibition assay, SK-BR-3
Assay type: cell-based
EXPERIMENTAL CONDITIONS: Homo sapiens, SK-BR-3, SK-BR-3; cell killing (cytotoxic effect); read-out: LC50 SK-BR-3
Quick list: CC50 per entry.
Just the number in µM, nothing appended.

{"COMPOUND": "COc1cc(-c2c3c4cc(OC)c(O)cc4oc(=O)c3n3ccc4c(N)cccc4c23)ccc1O [Compound 182]", "MEASURE": "CC50", "READOUT VALUE": 12}
{"COMPOUND": "COc1cc(-c2c3c4cc(OC)c(O)cc4oc(=O)c3n3ccc4cc(OC)c(OC)cc4c23)ccc1O [Compound 26]", "MEASURE": "CC50", "READOUT VALUE": 13.6}
{"COMPOUND": "COc1cc2c(cc1O)CCn1c-2cc2c3cc(OC)c(O)cc3oc(=O)c21 [Compound 196]", "MEASURE": "CC50", "READOUT VALUE": 26.4}

Value sought: CC50, system SK-BR-3, item COc1cc(-c2c3n(c4c(=O)oc5cc(OC(=O)[C@H](Cc6c[nH]c7ccccc67)NC(=O)OC(C)(C)C)c(OC)cc5c24)CCc2cc(OC(=O)[C@H](Cc4c[nH]c5ccccc45)NC(=O)OC(C)(C)C)c(OC)cc2-3)ccc1OC(=O)[C@H](Cc1c[nH]c2ccccc12)NC(=O)OC(C)(C)C [Compound 29] . Result: 7.03

Value sought: CC50, system SK-BR-3, item COc1cc(-c2c3c4cc(OC)c(OC(=O)[C@H](C)NC(=O)[C@H](C)N)cc4oc(=O)c3n3ccc4c(OC(=O)[C@H](C)NC(=O)[C@H](C)N)c(OC)c(OC)cc4c23)ccc1OC(=O)[C@H](C)NC(=O)[C@H](C)N [Compound 5] . Result: 3.54

---

System: IGROV
ASSAY NAME: SRB colorimetric cell growth inhibition assay, IGROV
Format: cell-based
EXPERIMENTAL CONDITIONS: IGROV; LC=cell killing (cytotoxic effect); read-out: LC50 IGROV
MEASURE: CC50
Please state the value followed by its unit.

Sample COc1cc(-c2c3n(c4c(=O)oc5cc(OC(C)=O)c(OC)cc5c24)CCc2cc(OC)c(OC(C)=O)cc2-3)ccc1OC(C)=O [Compound 94] ; CC50 observed: 15.9 µM

---

Tested on: LoVo-Dox
ASSAY NAME: SRB colorimetric cell growth inhibition assay, LoVo-Dox (MDR)
Format: cell-based
EXPERIMENTAL CONDITIONS: Homo sapiens, LOVO-DOX; GI=growth inhibition; read-out: GI50 LOVO-DOX
Quick list: GI50 per entry.
Just the number in µM, nothing appended.

{"COMPOUND STRUCTURE": "COc1cc2c(cc1OC)-c1c(-c3ccc(OC(=O)[C@H](C)N)c(OC)c3)c3c4cc(OC)c(OC(=O)[C@H](C)N)cc4oc(=O)c3n1CC2", "UNIT NAME": "µM", "GI50": 0.909}
{"COMPOUND STRUCTURE": "COc1cc(-c2c3n(c4c(=O)oc5cc(OC(=O)[C@@H](N)Cc6ccccc6)c(OC)cc5c24)CCc2cc(OC(=O)[C@@H](N)Cc4ccccc4)c(OC)cc2-3)ccc1OC(=O)[C@@H](N)Cc1ccccc1", "UNIT NAME": "µM", "GI50": 1.76}

# context switch: different compound, same GI50
Sample "COc1cc(-c2c3c4cc(OC)c(OC(=O)[C@H](C)NC(=O)OC(C)(C)C)cc4oc(=O)c3n3ccc4c(OC(=O)[C@H](C)NC(=O)OC(C)(C)C)c(OC)c(OC)cc4c23)ccc1OC(=O)[C@H](C)NC(=O)OC(C)(C)C" ; GI50 observed: 5.29

Measured values drawn from patent US7396837B2 for this set.
